Listed molecules paired with reported melting point
Value expressed in °C; do not type the unit.

[[record]]
molecule = "COc1cc(Nc2nccc(Nc3ccc4c(ccn4S(=O)(=O)c4ccccc4)c3)n2)cc(OC)c1OC"
assay_result = 127


Data request: Return value of melting point for input CC(=O)OC1CSC(Oc2cnccc2C#N)C(OC(C)=O)C1OC(C)=O (centres undefined) , no commentary.
Data returned: 167

###

Listed compounds paired with reported melting point

Look over these answered cases.
[[record]]
compound = "CC(NC(Nc1cccc(C#N)c1)=C(C#N)S(=O)(=O)c1ccc(Cl)cc1)C(C)(C)C (stereo not drawn)"
recorded_metric = "melting point"
assay_result = "80 to 82 °C"

[[record]]
compound = "Cc1ccc(-c2ccccc2)cc1Cn1c(C2CC2)nn(C)c1=O"
recorded_metric = "melting point"
assay_result = "102 °C"

[[record]]
compound = "COC(=O)/C=C/c1c(SC(F)(F)F)c(C#N)nn1-c1c(Cl)cc(C(F)(F)F)cc1Cl"
recorded_metric = "melting point"
assay_result = "90 °C"


Data request: Return value of melting point for input `Cc1ccccc1-c1cn(-c2ccccc2)c2ncnc(N)c12` , no commentary.
Data returned: 181 to 182 °C

Data request: Return value of melting point for input `O=c1c(C=NO)c(Cl)nc2n1CCS2` , no commentary.
Data returned: 148 to 150 °C

Data request: Return value of melting point for input `CC/C=C\CCC(C#N)(C#N)Cc1ccc(Cl)cc1` , no commentary.
Data returned: 44.8 °C

Data request: Return value of melting point for input CC1CC(=O)NN=C1c1ccc(NC(=O)c2ccco2)cc1 (stereo not drawn) , no commentary.
Data returned: 213 to 216 °C

Data request: Return value of melting point for input `Cc1ccc(N(c2ccc(-c3ccc(N(c4ccccc4)c4cccc(C)c4)cc3)cc2)c2ccc3ccc4cccc5ccc2c3c45)cc1` , no commentary.
Data returned: 172 to 173 °C

Data request: Return value of melting point for input `CCOC(=O)c1sc(C)nc1OCCCc1cc(OC(C)C)nn1Cc1ccc(Cl)cc1Cl` , no commentary.
Data returned: 92 to 93 °C

Data request: Return value of melting point for input `Cc1ccc2c(c1)C(=O)C(=O)N2CCN(C(C)C)C(C)C` , no commentary.
Data returned: 65 to 67 °C

Data request: Return value of melting point for input `CNc1nc(N(C2CC(C)(C)N(O)C(C)(C)C2)C2CC(C)(C)N(O)C(C)(C)C2)nc(N(C2CC(C)(C)N(O)C(C)(C)C2)C2CC(C)(C)N(O)C(C)(C)C2)n1` , no commentary.
Data returned: 254 to 257 °C

Data request: Return value of melting point for input `CCCc1c(OCCCSc2ccc(CC(=O)O)cc2Cl)ccc2c(-c3ccccc3)coc12` , no commentary.
Data returned: 143 °C

###

Recorded metric: melting point

Look over these answered cases.
[[record]]
compound = "C1=C(c2cc3ccccc3[nH]2)Cc2ccccc21"
assay_result = "273 to 274 °C"

[[record]]
compound = "CCc1ccc2c(c1)C=Cc1cc(C)ccc1C2c1cn(-c2ccnc(N(C)CC(=O)Nc3nc(CC(=O)O)cs3)n2)c(=O)[nH]c1=O (stereo not given)"
assay_result = "188 °C"

[[record]]
compound = "Cc1cc(F)ccc1-n1c(CF)nc2ccc(N)cc2c1=O"
assay_result = "193 to 196 °C"

[[record]]
compound = "NC(=O)c1cc(Cl)c(Cl)cc1C(=O)O"
assay_result = "197 to 201 °C"

[[record]]
compound = "COc1ccc(-n2nnc(-c3ccc(Cl)cc3F)c2N)cc1"
assay_result = "148 to 150 °C"


Data request: Return value of melting point for input `O=S(=O)(Nc1cccc(C=C2c3ccccc3CCc3ccccc32)c1)c1ccccc1` , no commentary.
Data returned: 122 °C

Data request: Return value of melting point for input CC(C)OC(=O)C1(F)C(=O)NC(=O)NC1O/N=C\c1ccco1 (stereo not given) , no commentary.
Data returned: 131 to 134 °C

Data request: Return value of melting point for input `C[Si](C)(C)c1ccc2cc(C(=O)O)n(Cc3cccc(F)c3)c2c1` , no commentary.
Data returned: 189 to 191 °C

Data request: Return value of melting point for input `CCN(CC)C(=S)n1cc(F)c(/N=C/N(C)C)nc1=O` , no commentary.
Data returned: 118 to 123 °C

Data request: Return value of melting point for input `CN(C)c1nccc(-c2ccc(-c3ccc(N(c4ccccc4)c4ccccc4)cc3)cc2)n1` , no commentary.
Data returned: 140 to 141 °C

Data request: Return value of melting point for input `c1ccc(CNc2nc3ccccc3s2)cc1` , no commentary.
Data returned: 159 °C

Data request: Return value of melting point for input `Cc1ccc(-n2nc(C(F)F)cc2-c2ccc(S(C)(=O)=O)cc2)cc1Cl` , no commentary.
Data returned: 137 to 139 °C

Data request: Return value of melting point for input `CCCCCCCCCCCCCCCCCC(=O)Oc1cc(OC)cc(OC)c1C(=O)C=Cc1ccc(OC)cc1` , no commentary.
Data returned: 65 to 66 °C

Data request: Return value of melting point for input `COc1cc(OC)c2c(=O)[nH]c(-c3cc(C)c(OCCO)c(C)c3)nc2n1` , no commentary.
Data returned: 255 to 256 °C

Data request: Return value of melting point for input `O=C(NCC12CC3CC(CC(C3)C1)C2)c1cccc(O)c1Cl` , no commentary.
Data returned: 234 to 235 °C

Data request: Return value of melting point for input CCOC(=O)C(C)(Sc1nc2ccc(OCC)cc2s1)c1ccccc1 (stereo not given) , no commentary.
Data returned: 92 to 94 °C

Data request: Return value of melting point for input N#Cc1ccc2c(c1)C(=O)NC(C(Cl)(Cl)Cl)O2 (stereo not given) , no commentary.
Data returned: 212 to 214 °C

Data request: Return value of melting point for input `O=C(O)COc1ccc(SCc2cc(-c3ccc(C(F)(F)F)cc3)on2)c2c1CCCO2` , no commentary.
Data returned: 112 to 113 °C

Data request: Return value of melting point for input `CCOC(=O)c1cc2ccccc2n1CC#N` , no commentary.
Data returned: 65 to 67 °C

Data request: Return value of melting point for input `C=CCNc1nc(C)ccc1C(=O)OC` , no commentary.
Data returned: 140 to 142 °C
